Numbers sourced from patent EP0420021B1.

Test: Capillary wicking time of laminated membrane strip (hydrophilicity)
Format: physicochemical
Conditions: 0 days storage at 45° C; membrane treated with surfactant as example 4 Part E, laminated with Flexcon PM150C/V23/Poly SC9
property name: Wicking Time to traverse 5.4 cm strip (min)

molecule	output unit	Wicking Time to traverse 5.4 cm strip
CCCCCCCCCCCCOS(=O)(=O)[O-].[Na+] [sodium dodecyl sulfate]	min	6.3
CCCCCS(=O)(=O)O	min	4.1
CCCCCCCCCCS(=O)(=O)O	min	5.7
CCCCCCCCCCCCS(=O)(=O)O	min	6.2
CCCCCCCS(=O)(=O)O	min	4.9
CCCCCCCCS(=O)(=O)O	min	5.1
